Test: Cmax in BALB/c mouse at 50 mg/kg, po by LC-MS/MS analysis
Type: ADME, organism-based
Set-up: dose 50 mg/kg, route oral
Conditions: in vivo
measurementType: Cmax
Numeric answer plus unit only.

Query: Please supply the value of reported Cmax for the item CN(C)CC[C@@H](c1ccccc1)n1cc(NC(=O)c2n[nH]c3c2CCC(C)(C)C3)cn1
Reply: 3.8 µM

* * *

Experiment: Oral bioavailability in Sprague-Dawley rat at 5 mg/kg by LC-MS/MS analysis
Assay type: ADME, organism-based
Conditions: in vivo
measurementType: bioavailability (%)
Give just the numeric value; % need not be written.

Query: Please supply the value of reported bioavailability for the item CN(C)CC[C@@H](c1ccccc1)n1cc(NC(=O)c2n[nH]c3c2CCC(C)(C)C3)cn1
Reply: 40

* * *

Items are presented alongside their recorded solubility kinetic at 24 h, 10000 µM.
Experiment: physchem
Details: PBS buffer, pH 7.4, Kinetic_solubility

Known solubility kinetic at 24 h, 10000 µM results, listed for orientation:
N#Cc1cccc(Cn2cc(NC(=O)c3n[nH]c4c3CC(c3cn[nH]c3)CC4)cn2)c1 (racemic) :: < 1 µM
N#Cc1cccc(Cn2cc(NC(=O)c3n[nH]c4c3CCCC4)cn2)c1 :: 14 µM
N#Cc1cccc(Cn2cc(NC(=O)c3n[nH]c4cc(-c5cn[nH]c5)ccc34)cn2)c1 :: < 1 µM

Query: Please supply the value of reported solubility kinetic at 24 h, 10000 µM for the item O=C(Nc1cnn(Cc2ccccc2)c1)c1n[nH]c2c1CCC1(CC1)C2
Reply: < 1 µM

Query: Please supply the value of reported solubility kinetic at 24 h, 10000 µM for the item CC1(C)CCc2[nH]nc(C(=O)Nc3cnn(Cc4ccccc4)c3)c2C1
Reply: < 1 µM

* * *

Assay: Cmax in Sprague-Dawley rat at 5 mg/kg, po by LC-MS/MS analysis
Type: ADME, organism-based
Set-up: dose 5 mg/kg, route oral
Conditions: in vivo
measurementType: Cmax (nM)
Give just the numeric value; nM need not be written.

Query: Please supply the value of reported Cmax for the item CN(C)CC[C@@H](c1ccccc1)n1cc(NC(=O)c2n[nH]c3c2CCC(C)(C)C3)cn1
Reply: 200

* * *

Observed pKi values for Aurora kinase A (Homo sapiens) are listed in what follows.
In plain terms, pKi is the concentration in mol/L turned into minus its base-10 logarithm.

Known pKi results, listed for orientation:
CC1(C)CCc2c(C(=O)Nc3cnn([C@H](c4ccccc4)C4CCNCC4)c3)n[nH]c2C1 :: 7.72
O=C(Nc1cnn(Cc2ccccc2)c1)c1n[nH]c2c1CC1CC1C2 (racemic) :: 5.70
N#Cc1cccc(Cn2cc(NC(=O)c3n[nH]c4c3CC(c3cn[nH]c3)CC4)cn2)c1 (centres undefined) :: 6.66
CC1CCc2c(C(=O)Nc3cnn(Cc4ccccc4)c3)n[nH]c2C1 (racemic) :: 5.96
N#Cc1cccc(Cn2cc(NC(=O)c3n[nH]c4c3CC(c3cn[nH]c3)CC4)cn2)c1 (racemic) :: 6.68

Query: Please supply the value of reported pKi for the item O=C(Nc1cnn(Cc2ccccc2)c1)c1n[nH]c2c1CC1CC1C2 (centres undefined)
Reply: 6.06

Query: Please supply the value of reported pKi for the item CC1(C)CCc2[nH]nc(C(=O)Nc3cnn(Cc4ccccc4)c3)c2C1
Reply: 5.77

Query: Please supply the value of reported pKi for the item CC1(CO)CCc2c(C(=O)Nc3cnn(Cc4ccccc4)c3)n[nH]c2C1 (centres undefined)
Reply: 6.70
